# EXPERIMENTAL SYSTEM: human recombinant PARG (Homo sapiens (Human))
# Sequence (Q86W56 whole entry): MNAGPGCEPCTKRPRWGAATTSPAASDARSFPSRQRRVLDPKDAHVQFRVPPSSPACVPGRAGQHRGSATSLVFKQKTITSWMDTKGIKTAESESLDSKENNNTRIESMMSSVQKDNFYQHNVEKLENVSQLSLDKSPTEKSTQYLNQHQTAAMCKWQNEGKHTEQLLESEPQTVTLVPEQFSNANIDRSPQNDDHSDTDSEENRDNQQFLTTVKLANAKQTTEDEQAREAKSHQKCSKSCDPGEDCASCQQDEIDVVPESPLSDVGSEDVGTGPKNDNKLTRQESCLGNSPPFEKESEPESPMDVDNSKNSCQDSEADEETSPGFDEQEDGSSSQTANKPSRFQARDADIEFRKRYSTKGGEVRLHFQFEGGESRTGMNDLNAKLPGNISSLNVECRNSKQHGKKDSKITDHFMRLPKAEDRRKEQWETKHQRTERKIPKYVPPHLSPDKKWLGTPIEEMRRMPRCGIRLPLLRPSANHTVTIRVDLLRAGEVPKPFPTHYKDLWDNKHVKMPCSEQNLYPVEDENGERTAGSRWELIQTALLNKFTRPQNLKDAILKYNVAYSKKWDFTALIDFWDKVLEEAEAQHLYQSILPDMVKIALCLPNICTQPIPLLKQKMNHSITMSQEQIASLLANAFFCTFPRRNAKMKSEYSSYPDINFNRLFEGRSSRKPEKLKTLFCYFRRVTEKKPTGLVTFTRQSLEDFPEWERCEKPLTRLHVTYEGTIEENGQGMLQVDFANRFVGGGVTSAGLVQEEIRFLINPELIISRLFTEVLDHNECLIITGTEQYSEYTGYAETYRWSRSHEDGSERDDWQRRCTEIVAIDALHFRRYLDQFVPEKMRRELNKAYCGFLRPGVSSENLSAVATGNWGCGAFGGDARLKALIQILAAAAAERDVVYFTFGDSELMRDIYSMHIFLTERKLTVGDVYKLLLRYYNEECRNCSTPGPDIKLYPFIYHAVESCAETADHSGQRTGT
# PROCEDURE SUMMARY: PARG Activity Assay
# ASSAY CONDITIONS: recombinant human PARG 0.0185 nM, 1 hour pre-incubation, poly (ADP-ribose) substrate-coated plate, Abs 450
pIC50: −log10 of the molar value.
Classify by measured pIC50: True if it is equal to or exceeds 7, False if it is smaller.

Asked: For this compound, is measured pIC50 7 or higher? `Cc1cc(Cn2c(=O)n(Cc3cnn(C)c3)c(=O)c3cc(S(=O)(=O)NC4(C)CC4)sc32)n(C)n1`
Given back: True

Asked: For this compound, is measured pIC50 7 or higher? `Cc1cc(Cn2c(=O)n(Cc3cnn(C)c3)c(=O)c3cc(S(=O)(=O)NC4(C)CC4)sc32)ccc1F`
Given back: True

Asked: For this compound, is measured pIC50 7 or higher? `Cn1cc(Cn2c(=O)c3cc(S(=O)(=O)NC4(C)CC4)sc3n(Cc3ccc(N4CC(O)C4)nc3)c2=O)cn1`
Given back: True

Asked: For this compound, is measured pIC50 7 or higher? `CNS(=O)(=O)c1cc2c(=O)n(Cc3cnc(C)s3)c(=O)n(CC3CC3)c2s1`
Given back: False

Asked: For this compound, is measured pIC50 7 or higher? `Cc1ncc(Cn2c(=O)c3cc(S(=O)(=O)NC4(C)CC4)sc3n(Cc3ccc4[nH]ncc4c3)c2=O)s1`
Given back: True

Asked: For this compound, is measured pIC50 7 or higher? Cc1ncc(Cn2c(=O)c3cc(S(=O)(=O)NC4(C)CC4)sc3n(CC3CCCOC3)c2=O)s1 (stereo not drawn)
Given back: False

Asked: For this compound, is measured pIC50 7 or higher? `CC#CCn1c(=O)n(Cc2cnn(C)c2)c(=O)c2cc(S(=O)(=O)NC3(C)CC3)sc21`
Given back: False

Asked: For this compound, is measured pIC50 7 or higher? `Cc1cc(Cn2c(=O)n(Cc3cnn(C)c3)c(=O)c3cc(S(=O)(=O)NC4(C)CC4)sc32)[nH]n1`
Given back: True

Asked: For this compound, is measured pIC50 7 or higher? `Cn1cc(Cn2c(=O)c3cc(S(=O)(=O)NC4(C)CC4)sc3n(Cc3nc4c(s3)CCCC4)c2=O)cn1`
Given back: True

Asked: For this compound, is measured pIC50 7 or higher? `Cn1cc(Cn2c(=O)c3cc(S(=O)(=O)NC4(C)CC4)sc3n(Cc3ccc(F)c(C#N)c3)c2=O)cn1`
Given back: True

Asked: For this compound, is measured pIC50 7 or higher? `COCc1cc2cc(Cn3c(=O)n(Cc4cnn(C)c4)c(=O)c4cc(S(=O)(=O)NC5(C)CC5)sc43)ccc2[nH]1`
Given back: True
